Data credit: the RepoRT retention time repository

Assay Notes: HILIC, Waters Atlantis Premier BEH Z-HILIC, 100 × 2.1 mm, 1.7 µm, 40 °C, 0.15 mL/min, estimated dead time 1.5 min; A: water + 20 mM ammonium carbonate + 5 µM medronic acid; B: 10% water + 90% acetonitrile + 2 mM ammonium carbonate + 0.5 µM medronic acid; gradient (min/%B) 0/90 18/55 18.1/20 21.5/20 22/90 23.5/90 25.5/90
Reported Conditions: stereoisomer not certain
Metric: LC retention time (min)

The cases that follow already have their LC retention time on record.
O=C(O)CCC(O)C(=O)O (stereo not drawn) [2-hydroxy glutaric acid] : 9.22
NC(=O)C1=CN(C2OC(COP(=O)(O)OP(=O)(O)OCC3OC(n4cnc5c(N)ncnc54)C(O)C3O)C(O)C2O)C=CC1 (stereo not drawn) : 8.31

I. O=C(O)CCCCC1SCC2NC(=O)NC21 (stereo not drawn)
II. Cc1cc2nc3c(=O)[nH]c(=O)nc-3n(CC(O)C(O)C(O)COP(=O)(O)OP(=O)(O)OCC3OC(n4cnc5c(N)ncnc54)C(O)C3O)c2cc1C (stereo not drawn)
III. O=P(O)(O)OCC1OC(O)C(O)C(O)C1O (stereo not drawn) [Glucose-6-phosphate]
Hey, quick one: sort these by LC retention time, largest value first please. To answer, write out the labels according to the requested order.
III, II, I

* * *

Assay Notes: HILIC, Waters Atlantis Premier BEH Z-HILIC, 100 × 2.1 mm, 1.7 µm, 40 °C, 0.15 mL/min, estimated dead time 1.5 min; A: water + 20 mM ammonium carbonate + 5 µM medronic acid; B: 10% water + 90% acetonitrile + 2 mM ammonium carbonate + 0.5 µM medronic acid; gradient (min/%B) 0/90 18/55 18.1/20 21.5/20 22/90 23.5/90 25.5/90
Reported Conditions: stereoisomer not certain
Metric: LC retention time (min)

C[N+](C)(C)CC(O)CC(=O)[O-] (stereo not given) : 9.89

1. O=P(O)(O)OCC(O)CO (stereo not given) [Glycerol-3-phosphate]
2. Nc1ncnc2c1ncn2C1OC(CO)C(O)C1O (stereo not given)
3. NCCCCC(N)C(=O)O (stereo not given)
4. CCC(=O)OC(CC(=O)[O-])C[N+](C)(C)C (stereo not given)
Would you mind ranking these compounds by ascending LC retention time? To answer, write out the labels according to the requested order.
2, 4, 1, 3
(2: 3.18 min, 4: 6.42 min, 1: 9.92 min, 3: 18.6 min)

* * *

Assay Notes: HILIC, Waters Atlantis Premier BEH Z-HILIC, 100 × 2.1 mm, 1.7 µm, 40 °C, 0.15 mL/min, estimated dead time 1.5 min; A: water + 20 mM ammonium carbonate + 5 µM medronic acid; B: 10% water + 90% acetonitrile + 2 mM ammonium carbonate + 0.5 µM medronic acid; gradient (min/%B) 0/90 18/55 18.1/20 21.5/20 22/90 23.5/90 25.5/90
Reported Conditions: stereoisomer not certain
Metric: LC retention time (min)

CC(=O)SCCNC(=O)CCNC(=O)C(O)C(C)(C)COP(=O)(O)OP(=O)(O)OCC1OC(n2cnc3c(N)ncnc32)C(O)C1OP(=O)(O)O (stereo not drawn) : 10.1
O=C(O)CC(O)(CC(=O)O)C(=O)O : 12.8
O=C(O)CCC(=O)O : 9.23

* * *

Assay Notes: HILIC, Waters Atlantis Premier BEH Z-HILIC, 100 × 2.1 mm, 1.7 µm, 40 °C, 0.15 mL/min, estimated dead time 1.5 min; A: water + 20 mM ammonium carbonate + 5 µM medronic acid; B: 10% water + 90% acetonitrile + 2 mM ammonium carbonate + 0.5 µM medronic acid; gradient (min/%B) 0/90 18/55 18.1/20 21.5/20 22/90 23.5/90 25.5/90
Reported Conditions: stereoisomer not certain
Metric: LC retention time (min)

The cases that follow already have their LC retention time on record.
CCC(C)C(N)C(=O)O (stereo not given) : 6.5
CC(C)CC(N)C(=O)O (stereo not given) : 6.22
CC(C)(COP(=O)(O)OP(=O)(O)OCC1OC(n2cnc3c(N)ncnc32)C(O)C1OP(=O)(O)O)C(O)C(=O)NCCC(=O)NCCS (stereo not given) : 11.8
C=C(OP(=O)(O)O)C(=O)O : 12.9

P. O=C(CO)C(O)C(O)C(O)COP(=O)(O)O (stereo not given) [Fructose 6-phosphate]
Q. OCC1OC(O)C(O)C(O)C1O (stereo not given) [Hexose]
R. CC(O)C(=O)O (stereo not given)
S. NC(N)=NCCCC(N)C(=O)O (stereo not given)
Would you mind ranking these compounds by ascending LC retention time? To answer, write out the labels according to the requested order.
R, Q, P, S
